Reference source for all entries: paper PMC9308496

The following molecules each carry a recorded pKi for hD3R (Homo sapiens).
Answer as the number alone; pKi is minus log10 of concentration in mol/L.

| MOLECULE | MEASURED_ENDPOINT | RECORDED_RESULT |
| --- | --- | --- |
| O=C(NCCCCN1CC[C@]2(c3cccc(O)c3)CCC[C@H]1[C@H]2O)c1cc2ccccc2[nH]1 [compound 62] | pKi | 7.10 |

Please turn your attention to the following entry.
Input line: Request the reported pKi associated with CCOC(=O)/C=C1\[C@@H]2CCC[C@@]1(c1cccc(O)c1)CCN2CCN1CCN(c2cccc(Cl)c2Cl)CC1 [compound 65]
Output line: 6.86
